Tested on: 186277-243-T-J2-PDC complex spheroid viability;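 note: spheroids exposed to drugs for 7 days; 100% = DMSO vehicle control viability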
Assay: Anticancer human tumor 186277-243-T-J2-PDC patient-derived colon adenocarcinoma cell line growth inhibition [GQUAD]
Details: second compound 0.316 µM; first compound 0.0316 µM; hits give low values
Items are presented alongside their recorded viability, T/C.
The answer is to be given in %; state only the numeric part.

Use the examples below as a reference point.
CC(=O)O[C@H]1C(=O)[C@@]2(C)[C@H]([C@H](OC(=O)c3ccccc3)[C@]3(O)C[C@H](OC(=O)[C@H](O)[C@@H](NC(=O)c4ccccc4)c4ccccc4)C(C)=C1C3(C)C)[C@]1(OC(C)=O)CO[C@@H]1C[C@@H]2O + CN(C)c1ccc(Nc2c3ccc(NC(=O)CCN4CCCC4)cc3nc3cc(NC(=O)CCN4CCCC4)ccc23)cc1 :: 20.1
COc1ncnc(C2CC2)c1-c1ncc2cnn(Cc3ccc(-c4nc(C(F)(F)F)cn4C(C)C)cc3)c2n1 + CN(C)c1ccc(Nc2c3ccc(NC(=O)CCN4CCCC4)cc3nc3cc(NC(=O)CCN4CCCC4)ccc23)cc1 :: 92.8
O=C(c1cc(Cc2n[nH]c(=O)c3ccccc23)ccc1F)N1CCN(C(=O)C2CC2)CC1 + Cc1cnc(CNC(=O)c2c(=O)c3ccc(N4CCCN(C)CC4)nc3n3c2sc2ccccc23)cn1 :: 64.6

Exercise: Fill in: viability, T/C of Cn1ncnc1[C@H]1c2n[nH]c(=O)c3cc(F)cc(c23)N[C@@H]1c1ccc(F)cc1 + Cc1[nH]c2ccc(F)cc2c1-c1nc2c3cccnc3c3ncccc3c2[nH]1 is ___
Solution: 103

Exercise: Return reported viability, T/C; argument: COc1cc(C2c3cc4c(cc3C(OC3OC5COC(C)OC5C(O)C3O)C3COC(=O)C23)OCO4)cc(OC)c1O (stereo not given) + CN(C)c1ccc(Nc2c3ccc(NC(=O)CCN4CCCC4)cc3nc3cc(NC(=O)CCN4CCCC4)ccc23)cc1
Solution: 113

Exercise: I'd like to know its viability, T/C. The molecule in question is Cc1[nH]c2ccccc2c1CCNCc1ccc(/C=C/C(=O)NO)cc1 + CN(C)c1ccc(Nc2c3ccc(NC(=O)CCN4CCCC4)cc3nc3cc(NC(=O)CCN4CCCC4)ccc23)cc1
Solution: 87.8

Exercise: Quick one: viability, T/C of Cc1cccc(N(C)C(=O)C2C(O)CCN2c2nc(C)cc(C(F)(F)F)c2C#N)c1 (stereo not given) + Cc1cnc(CNC(=O)c2c(=O)c3ccc(N4CCCN(C)CC4)nc3n3c2sc2ccccc23)cn1 ?
Solution: 73

Exercise: Return reported viability, T/C; argument: Nc1ccn(C2OC(CO)C(O)C2(F)F)c(=O)n1 (stereo not given) + Cc1[nH]c2ccc(F)cc2c1-c1nc2c3cccnc3c3ncccc3c2[nH]1
Solution: 23.7

Exercise: GET /values?readout=viability, T/C&item= CCc1c2c(nc3ccc(O)cc13)-c1cc3c(c(=O)n1C2)COC(=O)[C@]3(O)CC + Cc1cnc(CNC(=O)c2c(=O)c3ccc(N4CCCN(C)CC4)nc3n3c2sc2ccccc23)cn1
Solution: 31.9

Exercise: Query (molecule): COc1ncnc(C2CC2)c1-c1ncc2cnn(Cc3ccc(-c4nc(C(F)(F)F)cn4C(C)C)cc3)c2n1 + Cc1cnc(CNC(=O)c2c(=O)c3ccc(N4CCCN(C)CC4)nc3n3c2sc2ccccc23)cn1 ; field requested: viability, T/C
Solution: 55.5
